# Kd per record follows
# target or test system: T1, catalytic domain of human MMP-14 (cdMMP-14) (human, UniProt P50281 114-320)
# T1 construct: range 114-320; Produced active in E. coli periplasm; biotinylated for BLI/ELISA
# test name: biolayer interferometry; biotinylated protease on streptavidin sensor, Fab in solution

binder	result unit	Kd
anti-MMP-14 Fab 2A6 (Fab, V domains shown, Fab from a synthetic human Fab library, produced in E. coli periplasm; also called Clone 2A6) VH: EVQLVESGGGLVQPGGSLRLSCAASGFNFSSSSIHWVRQAPGKGLEWVASISSSYGYTYYADSVKGRFTISADTSKNTAYLQMNSLRAEDTAVYYCARVVRMLPVRCIPRCIKTTLPLYGMDYWGQGTLVTVSS VL: DIQMTQSPSSLSASVGDRVTITCRASQSVSSAVAWYQQKPGKAPKLLIYSASSLYSGVPSRFSGSRSGTDFTLTISSLQPEDFATYYCQQSSFPFTFGQGTKVEIKR	nM	130
anti-MMP-14 Fab 1A5 (Fab, V domains shown, Fab from a synthetic human Fab library, produced in E. coli periplasm; also called Clone 1A5) VH: EVQLVESGGGLVQPGGSLRLSCAASGFNLYYYYMHWVRQAPGKGLEWVAYIYPYSGSTYYADSVKGRFTISADTSKNTAYLQMNSLRAEDTAVYYCARLDFLMRDIYYDLGGGALGWLIKYAMDYWGQGTLVTVSS VL: DIQMTQSPSSLSASVGDRVTITCRASQSVSSAVAWYQQKPGKAPKLLIYSASSLYSGVPSRFSGSRSGTDFTLTISSLQPEDFATYYCQQYSGPYPITFGQGTKVEIKR	nM	57
anti-MMP-14 Fab 2D9 (Fab, V domains shown, Fab from a synthetic human Fab library, produced in E. coli periplasm; also called Clone 2D9) VH: EVQLVESGGGLVQPGGSLRLSCAASGFNISSSSMHWVRQAPGKGLEWVASIYPYYGYTYYADSVKGRFTISADTSKNTAYLQMNSLRAEDTAVYYCARGVTRFTNDASVGQVWAGAYGMDYWGQGTLVTVSS VL: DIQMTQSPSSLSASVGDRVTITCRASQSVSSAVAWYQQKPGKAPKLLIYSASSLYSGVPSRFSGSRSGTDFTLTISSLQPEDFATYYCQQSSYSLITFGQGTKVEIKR	nM	260
